These measurements were taken from ChEMBL document CHEMBL4706644.

biological target: N-acyl-phosphatidylethanolamine-hydrolyzing phospholipase D (Homo sapiens, UniProt Q6IQ20); test: Inhibition of full length human NAPE-PLD expressed in HEK293T cell lysate using PED6 as substrate preincubated for 30 mins followed by substrate addition and measured at 2 mins interval for 1 hr by tecan-plate reader analysis; format: subcellular
Sequence (Q6IQ20 whole entry): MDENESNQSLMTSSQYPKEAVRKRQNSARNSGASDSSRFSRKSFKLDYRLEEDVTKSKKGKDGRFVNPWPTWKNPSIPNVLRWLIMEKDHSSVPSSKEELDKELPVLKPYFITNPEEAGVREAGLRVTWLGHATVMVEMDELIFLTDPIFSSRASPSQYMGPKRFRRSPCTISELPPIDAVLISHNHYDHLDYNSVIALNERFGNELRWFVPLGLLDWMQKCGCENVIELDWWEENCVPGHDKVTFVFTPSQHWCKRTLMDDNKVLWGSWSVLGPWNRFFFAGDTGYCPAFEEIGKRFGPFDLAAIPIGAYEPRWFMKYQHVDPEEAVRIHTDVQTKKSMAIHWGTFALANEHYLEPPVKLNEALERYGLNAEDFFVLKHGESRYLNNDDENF
pIC50: −log10 of the molar value.
measure: pIC50

Record excerpt, results attached:
Task: Fill blank: measured pIC50 of the molecule CNC(=O)CNC(=O)c1cc(N2CCOCC2)nc(N(C)CCc2ccccc2)n1 is ____.
Output: 4.77

Task: # lookup: pIC50 of CN(CCc1ccccc1)c1nc(C(N)=O)cc(N2CCOCC2)n1
Output: 4.75

Task: Using the record for CN(CCc1ccccc1)c1nc(C(=O)NCC(F)(F)F)cc(N2CCOCC2)n1 , report its pIC50.
Output: 4.48

Task: Fill in: pIC50 of CN(CCc1ccccc1)c1nc(C(=O)NCc2ccccc2)cc(N2CCOCC2)n1 is ___
Output: 4.63

Task: Recorded pIC50 of O=C(NCC1CC1)c1cc(N2CCS(=O)(=O)CC2)nc(N2CCC[C@@H](c3ccccc3)C2)n1 , please.
Output: 4.76

1: O=C(NCC1CC1)c1cc(N2CCOCC2)nc(N(CCc2ccccc2)Cc2ccccc2)n1
2: CN(CCc1ccccc1)c1nc(-c2ncc(C3CC3)[nH]2)cc(N2CCOCC2)n1
Task: Sorting by pIC50 in descending order, would 1 or 2 appear first? The response must carry the label of the picked entry.
Output: 1
